# ASSAY_EXPLANATION: NCI Yeast Anticancer Drug Screen. Data for the mlh1 rad18 strain (AID 175)
# CONDITION_NOTES: S. cerevisiae mlh1 rad18 strain growth inhibition, active compounds read high; at 50.0 µM unless noted
About 79,000 compounds went through this panel and 15% of them were active in at least one assay; those are over-represented in the sample as a whole.
Measured growth inhibition accompanies every entry in the list below.
TEST_READOUT: growth inhibition (%)

# MOLECULE, VAL
data = [
    ("Cc1ccc(C(C)C)cc1NC(=O)c1ccc([N+](=O)[O-])cc1", 21.6),
    ("Cc1ccc(OC(=O)Oc2ccc(C)cc2)cc1", 18),
    ("O=c1oc2c3ccc4ccccc4c3n(CCN3CCOCC3)c2c2ccccc12", -3.9),
    ("CCNC(=O)c1ccccc1S(C)=O (stereo not drawn)", -20.1),
    ("Cc1cc(C)nc(NS(=O)(=O)c2ccc(Nc3c4ccccc4nc4c(C(=O)Nc5ccc(S(=O)(=O)Nc6cc(C)on6)cc5)ccc(Cl)c34)cc2)n1", 41.5),
    ("Cc1ccc(OCCC(=O)N(C)C)cc1", 10.9),
    ("O=C(CCC(=O)Nc1ccccc1C(F)(F)F)N/N=C1\\C(=N\\NC(=O)CCC(=O)Nc2ccccc2C(F)(F)F)C(c2ccc3c(c2)OCO3)Oc2ccccc21 (stereo not drawn)", 4.55),
    ("CC1(C)OC(CCl)C2OC(C)(C)OC(CCl)C2O1 (stereo not drawn)", 2.75),
    ("C=C(C)C1CCC2(C)C1CCC1(C)C2CCC2C3(C)C4OC(OC4=O)C(C)(C)C3CCC21C (stereo not drawn)", -53),
    ("COc1cc(/C=C/c2ccc(N(C)C)cc2)oc(=O)c1", 0.25),
    ("Cc1nc(-c2ccc(Cl)cc2)cn2c1nc1ccccc12", -10.3),
    ("CCOC(=O)CN(c1ccccc1)c1nc(=[N+](C)C)ss1", 22.9),
    ("CCCCOC(=O)COCC(=O)OC(C)C(=O)OCCCC (stereo not drawn)", 4.1),
    ("CC(CC(=O)c1ccccc1)[N+](=O)[O-] (stereo not drawn)", 15.8),
    ("O=C1c2ccc3c4ccccc4n(-c4ccccc4)c3c2C(=O)N1c1ccc(Cl)cc1", -7.05),
    ("O/C(=C/c1ncnc2ccccc12)c1cccc(Cl)c1", 15),
    ("Cc1ncc(CO)c(CO)c1OCC(O)CN1CCN(c2ccc(F)cc2)CC1 (stereo not drawn)", -0.45),
    ("Cn1c2c(c(=O)c3cc(O)ccc31)CC(O)C(C)(C)O2 (stereo not drawn)", -2.7),
    ("CCCCCCCC/C=C\\CCCCCCCC(=O)NC(C)(C)C(=O)O", -36.4),
    ("O=c1ccc2ccc3[nH]onc3c2c1", -2.2),
    ("CCOC(=O)CC/C=N/Nc1ccc([N+](=O)[O-])cc1[N+](=O)[O-]", 0),
    ("Cc1c2ccccc2nc(CS(C)(=O)=O)[n+]1[O-]", -5.5),
    ("CCN(CC)CCC(=O)c1ccc(Cl)cc1", 17.4),
]

---

# ASSAY_EXPLANATION: NCI Yeast Anticancer Drug Screen. Data for the sgs1 mgt1 strain (AID 161);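 also: 0% = growth of cultures given vehicle only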
# CONDITION_NOTES: S. cerevisiae sgs1 mgt1 strain, active compounds read high; at 50.0 µM unless noted
About 79,000 compounds went through this panel and 15% of them were active in at least one assay; those are over-represented in the sample as a whole.

# COMPOUND, growth inhibition (%)
data = [
    ("Cc1ccc(NC(=O)Oc2ccc(C#N)cc2)c(C)c1", -0.9),
    ("N=c1ccccn1C(=O)C1=Cc2cc(Cl)cc(Cl)c2OC1", -1.85),
    ("O=C(CC1SC(=Nc2ccccc2Cl)NC1=O)Nc1ccc(Cl)cc1Cl (configuration not stated)", -15.9),
    ("CC(=O)Nc1snc(C)c1[N+](=O)[O-]", 6.75),
    ("CCN(CC)CCOC(=O)Cc1cccc2c(=O)cc(-c3ccccc3)oc12", -3.65),
    ("CC(C)(C)OC(=O)NCC(=O)NC1C/C(=N\\O)c2sccc21 (configuration not stated)", 11.3),
    ("N/N=C1/CCN2CCCc3cccc1c32", 1.25),
    ("CN1N=C(c2ccncc2)OC1c1cccc(F)c1 (configuration not stated)", -25.6),
    ("CC(C)(CO)C(O)C(=O)NN (configuration not stated)", 8.6),
    ("Fc1ccc2c(c1)SC1Oc3ccccc3-c3c1c-2nn3-c1ccccc1 (configuration not stated)", -17.4),
    ("Nc1nc(CCc2ccc(NC(=O)CBr)cc2)c(CCCCc2ccccc2)c(=O)[nH]1", 25.8),
    ("CCCCCCNC(=O)CCN(C(=O)O)S(=O)(=O)c1ccc(NC(=O)c2ccccc2)cc1", 8.6),
]

---

# ASSAY_EXPLANATION: NCI Yeast Anticancer Drug Screen. Data for the mlh1 rad18 strain (AID 175)
# CONDITION_NOTES: S. cerevisiae mlh1 rad18 strain growth inhibition; at 50.0 µM unless noted
About 79,000 compounds went through this panel and 15% of them were active in at least one assay; those are over-represented in the sample as a whole. Active and inactive are the calls of the source. No stated cut-off is given here; in the data, active means growth inhibition above about 70%; inactive means the rest. Where a SMILES comes first, the peptide text is derived from it. The star is where a group is joined. Cbz = O=C(OCc1ccccc1)*
Outcomes: yes for active, no for inactive

# COMPOUND, LABEL
rows = [
    ("c1ccc(Nc2ccccc2)cc1 (tested in a mixture with another compound)", "no"),
    ("O=C(c1cccs1)N(C(=S)N1CCN(c2ccccc2)CC1)C1CCCCC1", "no"),
    ("COC(=O)C(CC(C)C)NC(=O)C(CC(N)=O)NC(=O)C(NC(=O)OCc1ccccc1)C(C)C (stereo not drawn) (Cbz-Val-Asn-Leu-OMe; configuration not given here)", "no"),
    ("O=[N+]([O-])c1cc(COc2ccc(Cl)c(Cl)c2)ccc1Cl", "no"),
    ("CCOc1ccc2c(c1)S(=O)(=O)OC2=O", "no"),
    ("CCCCCC1CC(=O)NC1C(=O)O (stereo not drawn)", "no"),
    ("NC(=O)c1ccc[n+]([O-])c1", "no"),
    ("CCOC(=O)N/N=C/c1ccccc1C", "no"),
    ("O=C(O)C1(F)CC1(c1ccccc1)c1ccccc1 (stereo not drawn)", "no"),
    ("Cn1c(NN)nc2ccccc2c1=O", "no"),
    ("COc1cc(O)c(C(=O)/C=C/c2ccccc2)c(OC)c1", "no"),
    ("O=C(COc1ccc(Cl)cc1)Nc1cc(Cl)c(Cl)cc1Cl", "no"),
    ("O=C1OC2C(O)C(CO)OC2n2c1cc(=O)[nH]c2=O (stereo not drawn)", "no"),
    ("COc1cc2c(cc1OC)NC(=O)NC(Cc1ccc3c(c1)OCO3)CC2 (stereo not drawn)", "no"),
    ("CCCCOC(=O)C(O)Cc1ccoc1 (stereo not drawn)", "no"),
    ("O=C(Nc1ccc2ccccc2c1)c1ccccc1Cl", "no"),
    ("O=[N+]([O-])c1ccccc1/C=C/c1ccccn1", "no"),
    ("CS(=O)(=O)c1cccc(C(=O)O)c1", "no"),
    ("O=[N+]([O-])c1ccc[nH]1", "no"),
    ("O=C1OCC(c2ccccc2)=C1c1ccccc1", "no"),
    ("O=C(O)CCCCCCC(=O)O", "no"),
    ("CCCCCCCCCCCCCCCCCCOC(=O)CC(C)=O", "no"),
    ("O=C(O)C1Oc2cc3ccccc3cc2O1", "no"),
    ("O=c1[nH][nH]c2ccccc12", "no"),
    ("COC1OC(COS(=O)(=O)c2ccc(C)cc2)C(OS(=O)(=O)c2ccc(C)cc2)C(OS(=O)(=O)c2ccc(C)cc2)C1OS(=O)(=O)c1ccc(C)cc1 (stereo not drawn)", "no"),
    ("CSCCSC", "no"),
    ("N/N=C1\\C(=O)N(C2CCCCCC2)C(=O)C1C(=O)NC1CCCCCC1 (stereo not drawn)", "no"),
    ("C1COC2SC3=C(SC(=C4SC5=C(SCCS5)S4)S3)SC2O1 (stereo not drawn)", "no"),
    ("CCN(CC(COc1ccc2c(c1)[n+]([O-])nc(N)[n+]2[O-])OC(C)=O)C(C)=O (stereo not drawn)", "no"),
    ("CCOC(CC(=O)NCCNC(C)=O)OCC", "no"),
    ("BrC(Br)(Br)Br", "no"),
    ("Cc1cccc(NC(=O)OC/C=C/c2ccccc2)c1", "no"),
    ("Cc1cccc(NC(=O)Nc2ccccc2F)n1", "no"),
    ("Cc1nn(C(C)C(=O)N(C)C)c(Br)c1Br (stereo not drawn)", "no"),
    ("NC(N)=NS(=O)(=O)c1ccc(N=NC2=C(O)C(c3ccccc3)N(c3ccccc3)C2=O)cc1 (stereo not drawn)", "no"),
    ("CCOC(=O)CN(c1c(C)cc([N+](=O)[O-])c2ccccc12)S(=O)(=O)c1ccccc1", "no"),
    ("CCCCCCCCCCCC[N+](C)(C)C(C)Cc1ccccc1 (stereo not drawn)", "yes"),
    ("Cn1nnn(Cc2ccccc2)/c1=N/C(=S)Nc1ccccc1", "no"),
    ("CC(C)(C)OC(=O)N1CCC2(CC1)C(=O)NCN2c1ccccc1", "no"),
    ("O=S1(=O)CCC12CC1c3ccccc3C2c2ccccc21 (stereo not drawn)", "no"),
    ("CC(C)OC(=O)Oc1cccc(OC(=O)OC(C)C)c1", "no"),
    ("CC(=O)C[N+](C)(C)C", "no"),
    ("CC(C)N(C(=O)c1ccc(C(=O)N(c2ccccc2)C(C)C)cc1)c1ccccc1", "no"),
    ("C#CCOCC(CCl)OC(=O)Nc1ccccc1 (stereo not drawn)", "yes"),
    ("CCCCC(Sc1nn(C2OC(COC(=O)c3ccccc3)C(OC(=O)c3ccccc3)C2OC(=O)c2ccccc2)c(=O)[nH]c1=O)C(=O)OCC (stereo not drawn)", "no"),
    ("NC1CCCC2CCC(N)C12 (stereo not drawn)", "no"),
    ("CC(C)=CCCC(C)CCO (stereo not drawn)", "no"),
    ("CC(=O)OC[C@H](O)[C@@]1(O)CC[C@H]2[C@@H]3CCC4=CC(=O)C=C[C@]4(C)[C@H]3[C@@H](O)C[C@@]21C", "no"),
]
